The reported numbers originate from patent US20230265151A1.

cAMP EC50 (1.0% HSA) by entry:
TESTED_SYSTEM: human GIP receptor (human)
Sequence (looked up): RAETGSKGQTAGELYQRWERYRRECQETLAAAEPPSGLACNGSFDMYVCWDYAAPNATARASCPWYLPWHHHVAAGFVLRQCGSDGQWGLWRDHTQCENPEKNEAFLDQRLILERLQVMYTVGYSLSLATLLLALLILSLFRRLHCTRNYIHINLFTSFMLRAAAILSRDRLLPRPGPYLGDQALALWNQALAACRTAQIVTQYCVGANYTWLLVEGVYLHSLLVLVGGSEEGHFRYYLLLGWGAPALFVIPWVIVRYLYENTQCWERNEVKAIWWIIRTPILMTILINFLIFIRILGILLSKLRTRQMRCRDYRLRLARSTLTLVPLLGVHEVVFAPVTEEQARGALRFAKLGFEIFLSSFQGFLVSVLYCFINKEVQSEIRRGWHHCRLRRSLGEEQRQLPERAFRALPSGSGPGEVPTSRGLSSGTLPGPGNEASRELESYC
EXPERIMENT: cell-based or functional assay
PARAMETER_MEASURED: cAMP EC50 (1.0% HSA) (nM)

- Y-Aib-EGT-αMeF(2F)-TSD-4Pal-SI-αMeL-LD-Orn-K((2-[2-(2-Amino-ethoxy)-ethoxy]-acetyl)2-(γ-Glu)-CO-(CH2)12-CO2H)AQ-Aib-EFI-(D-Glu)-αMeY-LIEGGK((2-[2-(2-Amino-ethoxy)-ethoxy]-acetyl)2-(γ-Glu)-CO-(CH2)12-CO2H)SSG-Orn-PPPS-NH2 (peptide): 1.15
- Y-Aib-EGT-αMeF(2F)-TSD-4Pal-SI-αMeL-LD-Orn-K((2-[2-(2-Amino-ethoxy)-ethoxy]-acetyl)2-(γ-Glu)-CO-(CH2)12-CO2H)AQ-Aib-EFI-(D-Glu)-αMeY-LIEGGK((2-[2-(2-Amino-ethoxy)-ethoxy]-acetyl)2-(γ-Glu)-CO-(CH2)12-CO2H)SSG-NH2 (peptide): 1.22
- Y-Aib-EGT-αMeF(2F)-TSD-4Pal-SI-αMeL-LD-Orn-K((2-[2-(2-Amino-ethoxy)-ethoxy]-acetyl)2-(γ-Glu)-CO-(CH2)12-CO2H)AQ-Aib-EFI-(D-Glu)-αMeY-LIEGGK((2-[2-(2-Amino-ethoxy)-ethoxy]-acetyl)2-(γ-Glu)-CO-(CH2)12-CO2H)SSG-Orn-PPP-Orn-NH2 (peptide): 1.25
- Y-Aib-EGT-αMeF(2F)-TSD-4Pal-SI-αMeL-LD-Orn-K((2-[2-(2-Amino-ethoxy)-ethoxy]-acetyl)2-(εK)-CO-(CH2)12-CO2H)AQ-Aib-EFI-(D-Glu)-αMeY-LIEGGK((2-[2-(2-Amino-ethoxy)-ethoxy]-acetyl)2-(εK)-CO-(CH2)12-CO2H)-NH2 (peptide): 0.335
- Y-Aib-EGT-αMeF(2F)-TSD-4Pal-SI-αMeL-LD-Orn-K((2-[2-(2-Amino-ethoxy)-ethoxy]-acetyl)2-(γ-Glu)-CO-(CH2)12-CO2H)AQ-Aib-EFI-(D-Glu)-αMeY-LIEGGK((2-[2-(2-Amino-ethoxy)-ethoxy]-acetyl)2-(γ-Glu)-CO-(CH2)12-CO2H)-NH2 (peptide): 2.46
- Y-Aib-EGT-αMeF(2F)-TSD-4Pal-SI-αMeL-LD-Orn-K((εK)-(γ-Glu)-CO-(CH2)12-CO2H)AQ-Aib-EFI-(D-Glu)-αMeY-LIEGGK((εK)-(γ-Glu)-CO-(CH2)12-CO2H)-NH2 (peptide): 2.19
- Y-Aib-EGT-αMeF(2F)-TSD-4Pal-SI-αMeL-LD-Orn-K((εK)-(εK)-(γ-Glu)-CO-(CH2)12-CO2H)AQ-Aib-EFI-(D-Glu)-αMeY-LIEGGK((εK)-(εK)-(γ-Glu)-CO-(CH2)12-CO2H)-NH2 (peptide): 0.939
